# condition.summary: Caco-2, Caco-2 (cm/sec)
Where a SMILES comes first, the peptide text is derived from it. Bridges are numbered along the chain shown (N, C = ends). [ ]: non-standard residue; d: D form. The star is where a group is joined. NMeF = CN[C@@H](Cc1ccccc1)C(=O)O; NMeD = CN[C@@H](CC(=O)O)C(=O)O; NMeL = CN[C@@H](CC(C)C)C(=O)O; Piperidide = C1CCN(*)CC1; Sar = CNCC(=O)O; tBu = CC(C)(C)*
# maps each entry to its Papp

- molecule: "CC[C@H](C)[C@@H]1NC(=O)[C@H](CC(C)C)N(C)C(=O)CN(C)C(=O)[C@H]([C@@H](C)O)NC(=O)[C@H](Cc2ccccc2)N(C)C(=O)[C@H](CC(C)C)NC(=O)[C@H](Cc2ccccc2)N(C)C(=O)[C@@H](CC(C)C)NC(=O)C[C@@H](C(=O)N2CCCCC2)NC(=O)[C@H](CC(C)C)N(C)C(=O)[C@H](Cc2ccccc2)N(C)C1=O [pd225] ([dL][NMeF]L[NMeF]T[Sar][NMeL]I[NMeF][NMeL]D-Piperidide; lactam N-11)"
  unit.info: "×10⁻⁶ cm/s"
  Papp: 1
- molecule: "CC(C)C[C@@H]1NC(=O)[C@H](Cc2ccccc2)N(C)C(=O)[C@@H](C)NC(=O)C[C@@H](C(=O)N2CCCCC2)N(C)C(=O)[C@H](Cc2ccccc2)N(C)C(=O)[C@H](Cc2ccccc2)N(C)C(=O)[C@H](COC(C)(C)C)NC(=O)[C@H](CC(C)C)N(C)C(=O)CN(C)C(=O)[C@H]([C@@H](C)O)NC(=O)[C@H](CC(C)C)N(C)C1=O [pd224] ([dA][NMeF]L[NMeL]T[Sar][NMeL]S(tBu)[NMeF][NMeF][NMeD]-Piperidide; lactam N-11)"
  unit.info: "×10⁻⁶ cm/s"
  Papp: 1

From: patent US20230096766A1
